Where do the numbers come from? From patent US20240132475A1.

# Measured On: MALT-1 (Isoform 1) (Homo sapiens, UniProt Q9UDY8)
# Construct: using recombinant MALT-1 (Isoform 1, aa-840) generated in house; made in house
# Sequence (Q9UDY8 whole entry, canonical isoform): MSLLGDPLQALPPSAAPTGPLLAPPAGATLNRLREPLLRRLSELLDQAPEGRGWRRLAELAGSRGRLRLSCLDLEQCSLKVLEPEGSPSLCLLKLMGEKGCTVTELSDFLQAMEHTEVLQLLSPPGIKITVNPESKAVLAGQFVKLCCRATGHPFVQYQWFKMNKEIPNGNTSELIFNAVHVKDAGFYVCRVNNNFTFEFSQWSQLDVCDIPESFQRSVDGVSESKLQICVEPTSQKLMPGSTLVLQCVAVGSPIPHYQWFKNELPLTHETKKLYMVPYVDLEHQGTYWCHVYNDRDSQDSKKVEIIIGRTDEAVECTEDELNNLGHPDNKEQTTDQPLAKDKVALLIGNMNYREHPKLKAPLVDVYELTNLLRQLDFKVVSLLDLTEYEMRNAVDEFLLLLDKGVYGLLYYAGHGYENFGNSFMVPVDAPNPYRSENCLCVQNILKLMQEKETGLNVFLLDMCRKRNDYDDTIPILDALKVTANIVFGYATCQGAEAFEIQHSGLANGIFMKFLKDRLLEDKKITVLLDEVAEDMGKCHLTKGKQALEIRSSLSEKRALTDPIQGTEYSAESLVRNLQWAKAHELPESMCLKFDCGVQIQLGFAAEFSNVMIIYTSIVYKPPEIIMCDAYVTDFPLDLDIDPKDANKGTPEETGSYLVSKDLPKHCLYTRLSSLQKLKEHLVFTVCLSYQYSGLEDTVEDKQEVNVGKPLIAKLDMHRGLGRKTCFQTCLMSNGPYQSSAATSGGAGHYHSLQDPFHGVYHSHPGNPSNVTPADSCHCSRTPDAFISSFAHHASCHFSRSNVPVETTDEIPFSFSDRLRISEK
# Method Notes: MALT-1 (Isoform 1) enzyme fluorescent biochemical assay
# Measurement Context: test compound 1 μM; recombinant MALT-1 1.5 nM; read-out: Percent Inhibition (1 μM)
Experimental Endpoint: inhibition at 1 µM (%)

[
  {
    "Compound": "Cc1ccc(F)cc1Cn1ncc(C(=O)Nc2cnc(-n3nccn3)c(C#N)c2)c1C(F)(F)F [Compound 28]",
    "Unit Abbrev": "%",
    "inhibition at 1 µM": 84
  }
]

I. Cc1c(F)cccc1Cn1ncc(C(=O)Nc2cnc(-n3nccn3)c(C(F)(F)F)c2)c1C(F)(F)F [Compound 31]
II. N#Cc1cc(NC(=O)c2cnn(Cc3ccc(F)c(Cl)c3)c2C(F)(F)F)cnc1-n1nccn1 [Compound 21]
Exercise: Form field 'greater inhibition at 1 µM' accepts I or II ; which applies? Mark your selection by writing its label.
Solution: I
(I: 95%, II: 23%)
